# reported.conditions: in DMSO, 318.15 K
measured.parameter: solubility (mole fraction)
Please reply with the number alone, leaving off any unit.

Q) Hello, please tell me recorded solubility (mole fraction) for this one: COc1c(O)cc2c(c1O)[C@@H]1O[C@H](CO)[C@@H](O)[C@H](O)[C@H]1OC2=O
A) 0.0229

* * *

# reported.conditions: in water, 298.15 K
measured.parameter: solubility (mole fraction)
Please reply with the number alone, leaving off any unit.

Q) Hello, please tell me recorded solubility (mole fraction) for this one: COc1c(O)cc2c(c1O)[C@@H]1O[C@H](CO)[C@@H](O)[C@H](O)[C@H]1OC2=O
A) 7.5e-05

* * *

# reported.conditions: in DMSO, 308.15 K
measured.parameter: solubility (mole fraction)
Please reply with the number alone, leaving off any unit.

Q) Hello, please tell me recorded solubility (mole fraction) for this one: COc1c(O)cc2c(c1O)[C@@H]1O[C@H](CO)[C@@H](O)[C@H](O)[C@H]1OC2=O
A) 0.0198
